- System: PXR:RXRa (NR concentration 270 nM, RXRa partner concentration 90 nM)
- ASSAY NOTES: PBM binding z-score (relative to random genomic background probes); higher = stronger binding; sequences stand for … in GC…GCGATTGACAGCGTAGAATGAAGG
# PBM binding z-score per entry
Answer with a bare number; do not write a unit.

QUERY SEQUENCE | PBM binding z-score
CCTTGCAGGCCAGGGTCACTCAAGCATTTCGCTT | 2.65
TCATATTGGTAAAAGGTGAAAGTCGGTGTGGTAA | 1.43
TCGTATAGGTAAACAGGTGAAAGTCCGTAAGTTA | 0.831

input: Recorded PBM binding z-score for `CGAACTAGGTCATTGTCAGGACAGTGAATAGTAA` , please?
output: 1.84

input: Recorded PBM binding z-score for `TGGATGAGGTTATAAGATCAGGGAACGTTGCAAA` , please?
output: 0.986

input: Recorded PBM binding z-score for `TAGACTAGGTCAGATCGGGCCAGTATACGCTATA` , please?
output: 0.932

input: Recorded PBM binding z-score for `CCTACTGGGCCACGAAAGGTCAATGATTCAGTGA` , please?
output: 4.54

input: Recorded PBM binding z-score for `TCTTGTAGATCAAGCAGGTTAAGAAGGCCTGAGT` , please?
output: 0.386

input: Recorded PBM binding z-score for `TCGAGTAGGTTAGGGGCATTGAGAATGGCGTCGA` , please?
output: 0.449

input: Recorded PBM binding z-score for `GGAACGAGGGCAAGTTCATAGCAGAGTTTGATGG` , please?
output: 3.66

input: Recorded PBM binding z-score for `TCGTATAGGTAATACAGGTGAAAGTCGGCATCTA` , please?
output: 0.742

input: Recorded PBM binding z-score for `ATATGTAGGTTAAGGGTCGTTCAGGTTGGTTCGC` , please?
output: 3.64

----------
- Tested on: RXRa homodimer (NR concentration 180 nM)
- ASSAY NOTES: PBM binding z-score (relative to random genomic background probes); higher = stronger binding; sequences stand for … in GC…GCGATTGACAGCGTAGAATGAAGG
EXPERIMENTAL ENDPOINT: PBM binding z-score

QUERY SEQUENCE | PBM binding z-score
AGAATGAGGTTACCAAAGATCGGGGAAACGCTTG | 2.5
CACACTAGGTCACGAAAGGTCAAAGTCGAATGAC | 8.16
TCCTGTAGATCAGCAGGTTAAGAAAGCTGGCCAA | 0.412
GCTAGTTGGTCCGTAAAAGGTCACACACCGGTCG | 5.6

input: Recorded PBM binding z-score for `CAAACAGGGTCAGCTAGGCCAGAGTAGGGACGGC` , please?
output: 4.56

input: Recorded PBM binding z-score for `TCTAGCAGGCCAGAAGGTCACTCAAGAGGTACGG` , please?
output: 3.15

input: Recorded PBM binding z-score for `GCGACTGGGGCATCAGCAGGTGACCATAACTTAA` , please?
output: -0.0343

----------
- Test system: PXR homodimer (NR concentration 270 nM)
- ASSAY NOTES: PBM binding z-score (relative to random genomic background probes); higher = stronger binding; sequences stand for … in GC…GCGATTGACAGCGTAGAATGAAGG
Outcome: 1.0 for PBM binding z-score of at least 0.1; 0.0 for anything lower.

Use the examples below as a reference point.
QUERY SEQUENCE | TARGET ENTITY | ANSWER LABEL
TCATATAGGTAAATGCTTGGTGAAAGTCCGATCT | PXR homodimer (NR concentration 270 nM) | 1.0
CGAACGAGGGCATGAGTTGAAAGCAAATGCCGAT | PXR homodimer (NR concentration 270 nM) | 0.0
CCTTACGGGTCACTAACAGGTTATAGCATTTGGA | PXR homodimer (NR concentration 270 nM) | 1.0
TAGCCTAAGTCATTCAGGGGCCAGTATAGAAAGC | PXR homodimer (NR concentration 270 nM) | 0.0
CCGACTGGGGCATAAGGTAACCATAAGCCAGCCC | PXR homodimer (NR concentration 270 nM) | 0.0

input: Is the recorded value of PBM binding z-score equal to or greater than 0.1 for this sequence? `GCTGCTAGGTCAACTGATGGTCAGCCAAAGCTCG`
output: 0.0

input: Is the recorded value of PBM binding z-score equal to or greater than 0.1 for this sequence? `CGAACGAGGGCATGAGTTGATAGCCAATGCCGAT`
output: 0.0
